Record form. Attribute: peptide exchange yield. Fill in for each entry.
# subjectOfTest: T1, HLA-B*44:05 (human)
# T1 construct: also called peptide-receptive MHC class I molecule
# experiment: UV peptide exchange, anti-b2m ELISA

Q. I am curious: what peptide exchange yield value has been reported for EEINQGGRKY ?
A. 50 to 75%

Q. I am curious: what peptide exchange yield value has been reported for MEVDPIGHLYIF ?
A. > 75%

Q. I am curious: what peptide exchange yield value has been reported for KESMLKTTL ?
A. 50 to 75%

Q. I am curious: what peptide exchange yield value has been reported for EELALRIGL ?
A. 50 to 75%
